- system: HSA (Homo sapiens, UniProt P02768)
- Sequence (P02768 25-609): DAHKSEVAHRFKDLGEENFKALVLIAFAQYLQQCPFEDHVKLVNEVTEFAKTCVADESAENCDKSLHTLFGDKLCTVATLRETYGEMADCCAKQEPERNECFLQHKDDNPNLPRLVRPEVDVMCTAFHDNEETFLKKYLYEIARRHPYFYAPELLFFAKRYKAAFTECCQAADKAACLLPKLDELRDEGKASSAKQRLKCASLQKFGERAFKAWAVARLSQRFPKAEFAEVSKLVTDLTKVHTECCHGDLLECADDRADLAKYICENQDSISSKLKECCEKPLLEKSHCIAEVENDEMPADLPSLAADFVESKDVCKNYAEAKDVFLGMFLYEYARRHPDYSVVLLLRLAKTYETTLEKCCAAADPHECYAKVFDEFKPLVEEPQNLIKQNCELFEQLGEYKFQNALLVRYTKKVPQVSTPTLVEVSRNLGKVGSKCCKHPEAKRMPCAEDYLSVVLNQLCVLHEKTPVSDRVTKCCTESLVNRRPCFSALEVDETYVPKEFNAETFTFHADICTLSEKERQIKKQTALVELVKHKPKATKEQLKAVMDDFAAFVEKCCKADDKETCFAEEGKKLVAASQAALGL
- assay-summary: Schild analysis of SST2 binding in the presence of HSA
- reported-conditions: x-intercept of Schild plot, 5–100 μM HSA
pKd: −log10 of the molar value.
endpoint: pKd

>  <molecule>
C[C@@H](O)[C@H](NC(=O)[C@@H]1CSSC[C@H](NC(=O)[C@@H](Cc2ccccc2)NC(=O)COCCOCCNC(=O)[C@H](Cc2cn(-c3ccc(C(=O)N[C@@H](CCCCNC(=O)CCCc4ccc(I)cc4)C(=O)O)cc3)nn2)NC(=O)CC[C@H](C(=O)O)N2CCN(CC(=O)O)CCN(CC(=O)O)CC2)C(=O)N[C@@H](Cc2ccc(O)cc2)C(=O)N[C@H](Cc2c[nH]c3ccccc23)C(=O)N[C@@H](CCCCN)C(=O)N[C@@H]([C@@H](C)O)C(=O)N1)C(=O)O [[64Cu]Cu-NODAGA-cLAB2-TATE, metal not drawn]

>  <endpoint>
pKd

>  <value-measured>
5.74

$$$$
